tested on: EKVX; assay: Growth inhibition of human EKVX cells assessed as cell growth at 10^-5 M incubated for 48 hrs by sulforhodamine B assay; assay type: functional; settings: read-out: Activity
Could you please report measured growth at 10 µM for the items listed next?
I only need the number, in %, no unit after it.

Looking for the measured growth at 10 µM of `Clc1ccc(-c2nc(Nc3ccc(-c4nc5ccccc5[nH]4)cc3)nc(N3CCOCC3)n2)cc1` , can you help? -80

Looking for the measured growth at 10 µM of `Fc1ccc(-c2nc(Nc3ccc(-c4nc5ccccc5[nH]4)cc3)nc(N3CCOCC3)n2)cc1` , can you help? 3

Looking for the measured growth at 10 µM of `c1ccc(-c2nc(Nc3ccc(-c4nc5ccccc5[nH]4)cc3)nc(N3CCOCC3)n2)cc1` , can you help? -70

Looking for the measured growth at 10 µM of `c1ccc2[nH]c(-c3ccc(Nc4nc(N5CCCCC5)nc(N5CCOCC5)n4)cc3)nc2c1` , can you help? 5
